This section presents compounds with their documented pEC50 values.
- Test system: HBV
- method: HBV replication inhibition assay (BDNA assay) in HepG2.2.15 cells
- Assay type: cell-based
- experimental-context: Hepatitis B virus, HepG2.2.15, 144 h, encapsidated HBV DNA in supernatant at day 6, BDNA QuantiGene assay
pEC50: −log10 of the molar value.

compound	comparator	pEC50
CN1CC(c2ncno2)Cn2nc3c(c2C1=O)CN(C(=O)Nc1ccc(F)c(C#N)c1)CC3 (stereo not shown)	<	5.40
CN1CC(F)(c2ccccc2)Cn2nc3c(c2C1=O)CN(C(=O)Nc1ccc(F)c(C#N)c1)CC3 (stereo not shown)	=	6.75
CN1CC(O)(c2ccccc2)Cn2nc3c(c2C1=O)CN(C(=O)Nc1ccc(F)c(C#N)c1)CC3 (stereo not shown)	=	6.85
CN1CC(c2nc[nH]n2)Cn2nc3c(c2C1=O)CN(C(=O)Nc1ccc(F)c(C#N)c1)CC3 (stereo not shown)	<	5.40
CN1CC(c2nnn[nH]2)Cn2nc3c(c2C1=O)CN(C(=O)Nc1ccc(F)c(C#N)c1)CC3 (stereo not shown)	<	5.40
CN1CC(c2ccnn2C)Cn2nc3c(c2C1=O)CN(C(=O)Nc1ccc(F)c(C#N)c1)CC3 (stereo not shown)	=	7.08
CN1CC(c2cc[nH]n2)Cn2nc3c(c2C1=O)CN(C(=O)Nc1ccc(F)c(Cl)c1)CC3 (stereo not shown)	=	7.03

Attribution: patent US20220213102A1
